Experiment: Drug exposure / pharmacokinetics after oral gavage
Details: male, C57BL/6J, mouse, plasma, 10 mg/kg
value kind: Cmax (µM)
# value in µM; strip the unit string

The recorded Cmax for Cc1sc(-c2ccc(C(F)(F)F)cc2)nc1-c1nn[nH]c1C#N is 30.9

Looking up O=[N+]([O-])c1ccc(NS(=O)(=O)c2ccc(Br)s2)cc1 [ES9, Endosidin 9] , I see its Cmax listed as 72.3

====

Tested on: CHO–K1 cells
Assay: Seahorse XF-96 OCR dose response of 15 uncouplers (Figure 2)
Assay type: cell-based, Cricetulus griseus
Details: CHO–K1; Figure 2
value kind: MaxOCR lower than that seen with BAM15

Item: O=C(Nc1ccc([N+](=O)[O-])cc1Cl)c1cc(Cl)ccc1O [NEN, Niclosamide ethanolamine] | MaxOCR lower than that seen with BAM15: ~25%

The molecule identified as Cc1sc(-c2ccc(C(F)(F)F)cc2)nc1-c1nn[nH]c1C#N [OPC-163493] registered its MaxOCR lower than that seen with BAM15 at ~22%

Documented MaxOCR lower than that seen with BAM15 of O=[N+]([O-])c1ccc(O)c([N+](=O)[O-])c1 [DNP, 2,4-Dinitrophenol] : ~27%

CC(C)(C)c1cc(C=C(C#N)C#N)cc(C(C)(C)C)c1O [TyrA9, Tyrphostin A9] yielded MaxOCR lower than that seen with BAM15 of ~140%
